All figures here come from patent US20230052369A1.

Molecular target: T1, recombinant His-tagged human FRα (human, UniProt P15328 25-234)
T1 construct: Bought protein; also called hFRα; FRα-HIS
T1 sequence (P15328 25-234 limits assumed): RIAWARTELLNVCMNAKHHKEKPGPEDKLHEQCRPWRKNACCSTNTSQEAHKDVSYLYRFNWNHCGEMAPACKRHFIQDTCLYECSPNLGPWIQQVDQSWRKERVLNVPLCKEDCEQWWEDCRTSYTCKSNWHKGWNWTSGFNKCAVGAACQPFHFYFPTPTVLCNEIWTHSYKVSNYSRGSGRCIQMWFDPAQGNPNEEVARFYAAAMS
Experiment: BLI, n=2
VALUE TYPE: Kd (nM)
Please reply with the bare figure in nM and do not write the unit itself.

Exam item: Look up and state reported Kd for v29677 (scFv, One-armed, scFv at the N-terminus of Het FcA (Ala-Ala linker); also called N-term VL-(long)-VH) scFv: DIQMTQSPSSLSASVGDRVTITCQASQSIYSSLAWYQQKPGKAPKLLIYDASHLASGVPSRFSGSRYGTDFTLTISSVQPEDFATYYCQGGWYSSAATYVPNTFGGGTKVEVKGGSGGGSGGGSGGGSGGGSGEVQLVESGGGLVQPGGSLRLSCAASGFTISNNYYMCWVRQAPGKGLEWIACIYGGISGRTYYADSAKGRFTISKDSSNTVYLQMNSLRAEDTAVYYCVRGYVGTSNLWGQGTLVTVSS
Marked response: 5

Exam item: Quick one: give measured Kd for v29680 (scFv, One-armed, scFv at the C-terminus of Het FcA (GGGG linker); also called C-term VL-(long)-VH) scFv: DIQMTQSPSSLSASVGDRVTITCQASQSIYSSLAWYQQKPGKAPKLLIYDASHLASGVPSRFSGSRYGTDFTLTISSVQPEDFATYYCQGGWYSSAATYVPNTFGGGTKVEVKGGSGGGSGGGSGGGSGGGSGEVQLVESGGGLVQPGGSLRLSCAASGFTISNNYYMCWVRQAPGKGLEWIACIYGGISGRTYYADSAKGRFTISKDSSNTVYLQMNSLRAEDTAVYYCVRGYVGTSNLWGQGTLVTVSS
Marked response: 1.8
